Source of measurements: the M2OR odorant receptor database

# Target or test system: OR1S2 (Homo sapiens) (UniProt Q8NGQ3)
# Sequence (Q8NGQ3 whole entry): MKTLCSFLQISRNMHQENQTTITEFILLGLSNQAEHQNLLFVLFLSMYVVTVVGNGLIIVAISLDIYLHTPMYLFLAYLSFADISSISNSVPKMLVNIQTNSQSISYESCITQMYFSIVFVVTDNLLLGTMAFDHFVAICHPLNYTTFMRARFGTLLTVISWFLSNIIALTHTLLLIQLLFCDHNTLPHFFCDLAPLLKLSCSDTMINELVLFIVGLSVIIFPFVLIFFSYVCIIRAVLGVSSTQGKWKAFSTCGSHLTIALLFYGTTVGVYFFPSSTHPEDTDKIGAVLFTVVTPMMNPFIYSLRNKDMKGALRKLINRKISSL
# Assay setup: stereoisomer not certain
Result type: odorant receptor agonist call

> print(dat)
                                  compound    result
1    CCC1OC(C)=C(O)C1=O (stereo not drawn)  inactive
2     CC1=C(O)C(=O)OC1C (stereo not drawn)  inactive
3        CCCCC(S)C(C)CO (stereo not drawn)  inactive
4       CCCCCC(S)C(C)CO (stereo not drawn)  inactive
5      CCCC(S)CCOC(C)=O (stereo not drawn)  inactive
6          CCC(S)C(C)CO (stereo not drawn)  inactive
7       CC1=NC(C)C(C)S1 (stereo not drawn)  inactive
8  CCCCCC(=O)C(C)C(C)=O (stereo not drawn)  inactive

----------
# Target or test system: UniProt Q9WVN5
# Sequence (Q9WVN5 as listed by the source): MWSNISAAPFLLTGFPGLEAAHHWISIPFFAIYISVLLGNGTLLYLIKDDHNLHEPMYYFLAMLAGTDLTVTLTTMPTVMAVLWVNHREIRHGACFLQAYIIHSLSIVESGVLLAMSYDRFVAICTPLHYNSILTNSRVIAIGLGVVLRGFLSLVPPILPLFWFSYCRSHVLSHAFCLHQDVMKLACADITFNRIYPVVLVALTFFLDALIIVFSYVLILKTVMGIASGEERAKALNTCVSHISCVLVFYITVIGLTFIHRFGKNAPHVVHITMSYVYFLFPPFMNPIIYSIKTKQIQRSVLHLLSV
# Assay setup: stereoisomer not certain
Possible outcomes: yes (1) (active), no (0) (inactive)

> print(dat)
                                    compound  target.or.test.system    class
 1                                  CCC(=O)O         UniProt Q9WVN5   no (0)
 2                     O=C(c1ccccc1)c1ccccc1         UniProt Q9WVN5   no (0)
 3                                CCCCCCCCCS         UniProt Q9WVN5   no (0)
 4                          O=C1CCOc2ccccc21         UniProt Q9WVN5   no (0)
 5                              CCCCCC(=O)CC         UniProt Q9WVN5   no (0)
 6                            CCCC(=O)C(C)=O         UniProt Q9WVN5   no (0)
 7                             CCCCCCCC(C)=O         UniProt Q9WVN5   no (0)
 8                                   CCCCCCO         UniProt Q9WVN5   no (0)
 9                        CCCCCC1=C(C)CCC1=O         UniProt Q9WVN5   no (0)
10                                 CCCC(C)=O         UniProt Q9WVN5   no (0)
11                          CCCCCOC(=O)CCCCC         UniProt Q9WVN5   no (0)
12       CC(C)=CCCC(C)CCO (stereo not drawn)         UniProt Q9WVN5   no (0)
13                                  CCCCCC=O         UniProt Q9WVN5  yes (1)
14                              CCCCCCC(C)=O         UniProt Q9WVN5   no (0)
15                          O=c1ccc2ccccc2o1         UniProt Q9WVN5   no (0)
16                                    CCCCCO         UniProt Q9WVN5   no (0)
17  CCCCOC(=O)C(C)OC(=O)CCC (stereo not drawn)         UniProt Q9WVN5   no (0)
18                   CCCCCCCCCC(=O)[O-].[H+]         UniProt Q9WVN5   no (0)
